Reported EC50 fold shift compared to asexual stage: Stage 5 Gametocyte EC50 values are given for each entry in this list.
Tested on: Stage 5 gametocytes from P. falciparum NF54
Test: Late-stage (stage V) gametocyte survival assay, MitoTracker
Format: cell-based, Plasmodium falciparum
Conditions: gametocyte EC50 / 3D7 EC50

Nc1ccc(-c2nc3cc(Oc4ccc(Oc5ccc6[nH]c(-c7ccc(N)cc7)nc6c5)cc4)ccc3[nH]2)cc1 [MMV011895]; > 78
COc1cc(-c2nc(-c3ccccc3)c(-c3ccccc3)[nH]2)ccc1OCCN(C)C [MMV027496]; > 112

Here is the next item to consider.
Challenge: GET /values?readout=EC50 fold shift compared to asexual stage: Stage 5 Gametocyte EC50&item= O=C(NC(c1ccccc1)c1ccc2cccnc2c1O)c1ccccc1 (stereo not drawn) [MMV666080]
Response given: 8.53
